FYI, the data here is from patent US9029553B2.

# Tested on: U251
Recorded Metric: GI50 (µM)

1) O=C(Nc1nc2ccc(F)cc2s1)c1cccnc1Nc1ccc(Cl)cc1Cl [Compound 10]: 2.9
2) O=C(Nc1nc2ccc(F)cc2s1)c1cccnc1Nc1ccc(Cl)cc1 [Compound 9]: 3.03
3) COc1ccc2nc(NC(=O)c3cccnc3Nc3cc(OC)c(OC)c(OC)c3)sc2c1 [Compound 12]: 7.1
4) COc1cc(Nc2ncccc2C(=O)Nc2nc3ccc(F)cc3s2)cc(OC)c1OC [Compound 11]: 3.01

###

# System: MOLT-4
Recorded Metric: GI50 (nM)

1) COc1cc(Nc2ncccc2C(=O)Nc2nc3ccc(F)cc3s2)cc(OC)c1OC: 2110
2) O=C(Nc1nc2ccc(F)cc2s1)c1cccnc1Nc1ccc(Cl)cc1: 2220
3) COc1ccc2nc(NC(=O)c3cccnc3Nc3cc(OC)c(OC)c(OC)c3)sc2c1: 24200
4) O=C(Nc1nc2ccc(F)cc2s1)c1cccnc1Nc1ccc(Cl)cc1Cl: 2270

###

Recorded GI50 values (MDA-MB-468) are given below.
Recorded Metric: GI50

1) O=C(Nc1nc2ccc(F)cc2s1)c1cccnc1Nc1ccc(Cl)cc1Cl [Compound 10]: 1880 nM
2) COc1cc(Nc2ncccc2C(=O)Nc2nc3ccc(F)cc3s2)cc(OC)c1OC [Compound 11]: 1220 nM
3) COc1ccc2nc(NC(=O)c3cccnc3Nc3cc(OC)c(OC)c(OC)c3)sc2c1 [Compound 12]: 17800 nM
4) O=C(Nc1nc2ccc(F)cc2s1)c1cccnc1Nc1ccc(Cl)cc1 [Compound 9]: 1610 nM

###

Reported values of inhibition at 10 µM for individual entries
# System: OVCAR-5
# Test Summary: SRB percentage growth inhibition (NCI protocol)
# Assay type: cell-based
# Condition Summary: Homo sapiens, 10 μM, 48 hrs exposure
Recorded Metric: inhibition at 10 µM (%)

1) O=C(Nc1nc2ccc([N+](=O)[O-])cc2s1)c1cccnc1Nc1cc(F)c(F)c(F)c1: 52
2) O=C(Nc1nc2ccc([N+](=O)[O-])cc2s1)c1cccnc1Nc1ccc(Cl)cc1Cl: 0
3) O=c1[nH]cc(F)c(=O)[nH]1 [Compound 5-FU, 5-fluorouracil, reference compound]: 22
4) CC(=O)O[C@H]1C(=O)[C@@]2(C)[C@H]([C@H](OC(=O)c3ccccc3)[C@]3(O)C[C@H](OC(=O)[C@H](O)[C@@H](NC(=O)c4ccccc4)c4ccccc4)C(C)=C1C3(C)C)[C@]1(OC(C)=O)CO[C@@H]1C[C@@H]2O [Pac, paclitaxel, reference compound]: 51
5) COc1ccc(Nc2ncccc2C(=O)Nc2nc3ccc([N+](=O)[O-])cc3s2)cc1: 52
6) O=C(Nc1nc2ccc([N+](=O)[O-])cc2s1)c1cccnc1Nc1ccccc1: 50
7) O=C(Nc1nc2ccc([N+](=O)[O-])cc2s1)c1cccnc1Nc1ccc(F)cc1: 53

###

Reported values of inhibition at 10 µM for individual entries
# System: A549
# Test Summary: SRB percentage growth inhibition (NCI protocol)
# Type: cell-based
# Condition Summary: Homo sapiens, 10 μM, 48 hrs exposure
Recorded Metric: inhibition at 10 µM

1. CC(=O)O[C@H]1C(=O)[C@@]2(C)[C@H]([C@H](OC(=O)c3ccccc3)[C@]3(O)C[C@H](OC(=O)[C@H](O)[C@@H](NC(=O)c4ccccc4)c4ccccc4)C(C)=C1C3(C)C)[C@]1(OC(C)=O)CO[C@@H]1C[C@@H]2O [Pac, paclitaxel, reference compound]: 41%
2. COc1ccc(Nc2ncccc2C(=O)Nc2nc3ccc([N+](=O)[O-])cc3s2)cc1: 3%
3. O=C(Nc1nc2ccc([N+](=O)[O-])cc2s1)c1cccnc1Nc1ccc(F)cc1: 18%

###

Reported values of GI50 for individual entries
# Test system: SR
Recorded Metric: GI50 (nM)

1) O=C(Nc1nc2ccc(F)cc2s1)c1cccnc1Nc1ccc(Cl)cc1 [Compound 9]: 2280
2) O=C(Nc1nc2ccc(F)cc2s1)c1cccnc1Nc1ccc(Cl)cc1Cl [Compound 10]: 3030
3) COc1cc(Nc2ncccc2C(=O)Nc2nc3ccc(F)cc3s2)cc(OC)c1OC [Compound 11]: 2970
4) COc1ccc2nc(NC(=O)c3cccnc3Nc3cc(OC)c(OC)c(OC)c3)sc2c1 [Compound 12]: 2310

###

# Test system: PC-3
# Test Summary: SRB percentage growth inhibition (NCI protocol)
# Assay type: cell-based
# Condition Summary: Homo sapiens, 48 hrs exposure
Recorded Metric: inhibition at 1 µM (%)

1) COc1ccc(Nc2ncccc2C(=O)Nc2nc3ccc([N+](=O)[O-])cc3s2)cc1: 21
2) O=C(Nc1nc2ccc([N+](=O)[O-])cc2s1)c1cccnc1Nc1ccc(Cl)cc1Cl: 27
3) O=C(Nc1nc2ccc([N+](=O)[O-])cc2s1)c1cccnc1Nc1ccccc1: 22
4) O=C(Nc1nc2ccc([N+](=O)[O-])cc2s1)c1cccnc1Nc1ccc(F)cc1: 26
5) O=C(Nc1nc2ccc([N+](=O)[O-])cc2s1)c1cccnc1Nc1cc(F)c(F)c(F)c1: 41

###

Recorded GI50 values (HCT-15) are given below.
Recorded Metric: GI50 (µM)

1. O=C(Nc1nc2ccc(F)cc2s1)c1cccnc1Nc1ccc(Cl)cc1Cl: 3.74
2. O=C(Nc1nc2ccc(F)cc2s1)c1cccnc1Nc1ccc(Cl)cc1: 3.32
3. COc1ccc2nc(NC(=O)c3cccnc3Nc3cc(OC)c(OC)c(OC)c3)sc2c1: 11.2
4. COc1cc(Nc2ncccc2C(=O)Nc2nc3ccc(F)cc3s2)cc(OC)c1OC: 4.38

###

Recorded GI50 values (SF-295) are given below.
Recorded Metric: GI50 (nM)

1. O=C(Nc1nc2ccc(F)cc2s1)c1cccnc1Nc1ccc(Cl)cc1: 1800
2. COc1ccc2nc(NC(=O)c3cccnc3Nc3cc(OC)c(OC)c(OC)c3)sc2c1: 8340
3. O=C(Nc1nc2ccc(F)cc2s1)c1cccnc1Nc1ccc(Cl)cc1Cl: 1830
4. COc1cc(Nc2ncccc2C(=O)Nc2nc3ccc(F)cc3s2)cc(OC)c1OC: 2550

###

Recorded GI50 values (HCC-2998) are given below.
Recorded Metric: GI50 (µM)

1. COc1ccc2nc(NC(=O)c3cccnc3Nc3cc(OC)c(OC)c(OC)c3)sc2c1: 17
2. O=C(Nc1nc2ccc(F)cc2s1)c1cccnc1Nc1ccc(Cl)cc1Cl: 3.54
3. O=C(Nc1nc2ccc(F)cc2s1)c1cccnc1Nc1ccc(Cl)cc1: 2.75
4. COc1cc(Nc2ncccc2C(=O)Nc2nc3ccc(F)cc3s2)cc(OC)c1OC: 2.94

###

# Test system: NCI-H23
# Test Summary: NCI SRB GI50 screen
# Format: cell-based
# Condition Summary: Homo sapiens, Non-small lung, 48 hrs exposure, read-out: Growth Inhibition GI50 NCI-H23
Recorded Metric: GI50 (µM)

1) O=C(Nc1nc2ccc(F)cc2s1)c1cccnc1Nc1ccc(Cl)cc1: 1.67
2) O=C(Nc1nc2ccc(F)cc2s1)c1cccnc1Nc1ccc(Cl)cc1Cl: 2.34
3) COc1ccc2nc(NC(=O)c3cccnc3Nc3cc(OC)c(OC)c(OC)c3)sc2c1: 5.38
4) COc1cc(Nc2ncccc2C(=O)Nc2nc3ccc(F)cc3s2)cc(OC)c1OC: 2.27

###

Recorded GI50 values (OVCAR-4) are given below.
Recorded Metric: GI50 (nM)

1. O=C(Nc1nc2ccc(F)cc2s1)c1cccnc1Nc1ccc(Cl)cc1: 2920
2. COc1ccc2nc(NC(=O)c3cccnc3Nc3cc(OC)c(OC)c(OC)c3)sc2c1: 15000
3. O=C(Nc1nc2ccc(F)cc2s1)c1cccnc1Nc1ccc(Cl)cc1Cl: 2960
4. COc1cc(Nc2ncccc2C(=O)Nc2nc3ccc(F)cc3s2)cc(OC)c1OC: 2730

###

Reported values of IC50 for individual entries
# Test system: HCT-15
# Test Summary: MTT inhibition of cell proliferation
# Assay type: cell-based
# Condition Summary: Homo sapiens, 48 h
Recorded Metric: IC50

1. O=C(Nc1nc2ccc([N+](=O)[O-])cc2s1)c1cccnc1Nc1cc(F)c(F)c(F)c1: > 100 µM
2. O=C(Nc1nc2ccc([N+](=O)[O-])cc2s1)c1cccnc1Nc1ccccc1: > 100 µM
3. O=C(Nc1nc2ccc([N+](=O)[O-])cc2s1)c1cccnc1Nc1ccc(F)cc1: > 100 µM
4. COc1ccc(Nc2ncccc2C(=O)Nc2nc3ccc([N+](=O)[O-])cc3s2)cc1: > 100 µM
5. O=C(Nc1nc2ccc([N+](=O)[O-])cc2s1)c1cccnc1Nc1ccc(Cl)cc1Cl: > 100 µM

###

Recorded GI50 values (MDA-MB-435) are given below.
Recorded Metric: GI50 (nM)

1. COc1cc(Nc2ncccc2C(=O)Nc2nc3ccc(F)cc3s2)cc(OC)c1OC: 2870
2. O=C(Nc1nc2ccc(F)cc2s1)c1cccnc1Nc1ccc(Cl)cc1Cl: 3030
3. COc1ccc2nc(NC(=O)c3cccnc3Nc3cc(OC)c(OC)c(OC)c3)sc2c1: 1850
4. O=C(Nc1nc2ccc(F)cc2s1)c1cccnc1Nc1ccc(Cl)cc1: 2990
